- test_description: qHTS of pediatric cancer cell lines to identify multiple opportunities for drug repurposing: Primary screen for OHS-50 cells (AID 1347103); also: nearly all actives have a fitted effect of over 40% in size
- test_conditions: OHS-50 osteosarcoma viability, CellTiter-Glo luminescence, 48 h; series mostly up to 57.3 µM
Inconclusive results are not listed. Activity calls are given as the source filed them. Calls follow the shape of the dose curve; as a rule, active = well fitted cell-killing curve with a large enough effect; inconclusive = small, poorly fitted or top-dose-only effect; inactive = no such curve, though single readings can be large or run the other way.
Labels: TRUE (active), FALSE (inactive)

| molecule | cat |
| --- | --- |
| Cc1coc2ccccc2c1=O | FALSE |
| N#CSCC(=O)O | FALSE |
| C1N2CN3CN1CN(C2)C3 | FALSE |
| CC(C(O)c1ccccc1)N(C)CCOC(c1ccccc1)c1ccccc1 (configuration not stated) | TRUE |
| CC1CC(=O)NN=C1c1ccc(NCC(C)(C)NCC(O)COc2cc(Cl)ccc2C#N)cc1 (configuration not stated) | FALSE |
| COc1cc2nc(Cl)nc(N)c2cc1OC | FALSE |
| CN1CC(=O)N2[C@H](c3ccc4c(c3)OCO4)c3[nH]c4ccccc4c3C[C@@H]2C1=O | FALSE |
| CCCCOC(=O)CCCCCCCCC(=O)OCCCC | FALSE |
| Nc1c[n+](N2CCOCC2)no1 | FALSE |
| CC[C@@H]([C@H](C)O)n1ncn(-c2ccc(N3CCN(c4ccc(OC[C@@H]5CO[C@@](Cn6cncn6)(c6ccc(F)cc6F)C5)cc4)CC3)cc2)c1=O | TRUE |
| O=[N+]([O-])c1cncn1CCN1CCOCC1 | FALSE |
| CC(=O)O[C@H]1CC[C@@]2(C)C(=CC[C@@H]3[C@@H]2CC[C@]2(C)C(C(C)=O)=CC[C@@H]32)C1 | FALSE |
| Cc1cc2nc3ccc(=[N+](C)C)cc-3sc2cc1N | TRUE |
| O=C(O)CNC(=O)CNC(=O)CNC(=O)CSC(=O)c1ccccc1 | FALSE |
| Cc1ccc(O)cc1 | FALSE |
| O=C(CCCl)NCCc1ccccc1 | FALSE |
| Cc1[nH]cnc1-c1ccc(Cl)cc1 | FALSE |
| CC(C(=O)O)c1ccc(/C=C2\CCCCC2=O)cc1 (configuration not stated) | FALSE |
| CCCCC(CC)COC(=O)c1ccccc1C(=O)O (configuration not stated) | FALSE |
| Cc1ncc(CO)c(CO)c1O | FALSE |
| CN1N=C(C(N)=O)CCC1=O | FALSE |
| N[C@@H](Cc1cc(I)c(O)c(I)c1)C(=O)O | FALSE |
| O=C(OCC(COC(=O)c1cccnc1)(COC(=O)c1cccnc1)COC(=O)c1cccnc1)c1cccnc1 | FALSE |
| CC(=O)OCC[N+](C)(C)C | FALSE |
| O=C1CC(c2ccc(Cl)cc2)CC(=O)N1 | FALSE |
| CN(C)CCN(Cc1ccsc1)c1ccccn1 | FALSE |
| CN1Cc2cc(C(=O)N3CCC(C4CCNCC4)CC3)ccc2NC(CC(=O)O)C1=O (configuration not stated) | FALSE |
